# melting point per entry
A number alone suffices; assume °C.

[
  {
    "compound": "Sc1ccc(Cl)cc1",
    "melting point / °C": 61
  },
  {
    "compound": "C[Si]1(C)O[Si](C)(C)O[Si](C)(C)O[Si](C)(C)O[Si](C)(C)O[Si](C)(C)O1",
    "melting point / °C": -3
  },
  {
    "compound": "CCC(O)(COC(N)=O)c1ccccc1 (configuration not stated)",
    "melting point / °C": 55
  }
]

Which measured melting point value corresponds to Clc1ccc2ccccc2c1Cl ?
36

Please report the recorded melting point for CC(C=CC=C(C)C=CC1=C(C)CCCC1(C)C)=CC=CC=C(C)C=CC=C(C)C=CC1=C(C)CC(O)CC1(C)C (configuration not stated) .
160

----------
experimental_readout: melting point

Consider the reported melting point for these compounds:
[
  {
    "compound": "O=[N+]([O-])c1cccnc1Oc1ccccc1F",
    "melting point": "90 to 92 °C"
  },
  {
    "compound": "OC1(c2ccc(Cl)c(C(F)(F)F)c2)CCNCC1",
    "melting point": "135 to 140 °C"
  },
  {
    "compound": "CC(C)(C)NC(N)=O",
    "melting point": "178 to 182 °C"
  },
  {
    "compound": "CCCC1Nn2c(nnc2-c2cccc([N+](=O)[O-])c2)S1 (centres undefined)",
    "melting point": "129 °C"
  },
  {
    "compound": "O=[N+]([O-])c1ccc(-c2ccc(/N=N/c3ccccc3)cc2)cc1",
    "melting point": "178 to 179 °C"
  }
]

Okay, now this compound:
// returns reported melting point for input CC(=O)NCC1CN(c2ccc(N3CCOCC3)c(F)c2)C(=O)O1 (centres undefined)
182 °C

----------
Quick reference: melting point of the listed items.
Dear colleague, please return just the value in °C, with no unit written.

Answered cases to consult:
[
  {
    "compound": "CC1(C)OC(=O)C(=Cc2ccc(-c3cccc([N+](=O)[O-])c3)o2)C(=O)O1",
    "value": 179
  },
  {
    "compound": "CC(C)[C@@H]1C(=O)N(c2ccccc2)[C@@H]1c1ccccc1",
    "value": 169
  },
  {
    "compound": "Oc1c2ccccc2cc2ccccc12",
    "value": 152
  },
  {
    "compound": "Nc1ccc(C=Cc2cccc(N)c2)cc1",
    "value": 109
  },
  {
    "compound": "Cc1ccc2cc3c(cc2n1)CCC(C)N3C(=O)c1ccccc1 (stereo not given)",
    "value": 155
  },
  {
    "compound": "CC(=O)C(Cc1ccccc1)C(=O)OC1CC(C)CCC1C(C)C (stereo not given)",
    "value": 68
  }
]

For the compound CCCCCCCCOC(=O)CCCCCCC , what melting point is on record?
-18.1

Query (compound): CC1(C)c2ccccc2Oc2ccccc21 ; field requested: melting point
41.5

Dear colleague, I am looking for the recorded melting point of the following compound: OC1c2ccccc2CCc2ccccc21
92

Query (compound): O=S(=O)(F)Cc1ccccc1 ; field requested: melting point
93

// lookup melting point for O=C(O)C=Cc1c[nH]cn1
225

Fill blank: measured melting point of the compound CCN(CC)C(=O)C1C=C2c3cccc4[nH]cc(c34)CC2N(C)C1 (stereo not given) is ____.
82.5

Fill blank: measured melting point of the compound CC(C)(C)NCC(O)c1ccc(O)c(CO)c1 (stereo not given) is ____.
154

Which melting point value belongs to O=c1c(=O)c2cc(Cl)c(Cl)cc12 ?
183

I am curious: what melting point value has been reported for Nc1cccc(-c2ccccc2)c1 ?
33

Sample CC(C)CC(=O)C=Cc1ccccc1 — what was its melting point?
43
